Below is a list of entries, each paired with its recorded nuclear beta-catenin stimulation value.
Experiment: stimulators of nuclear beta-catenin in C2C12, primary screen, imaging, WNT3A-conditioned medium, mouse C2C12, NPC library (AID 1117326); also: reference of the scale not given here
Settings: stimulation, at 2 µM, stronger effect = higher value
Give the quantity in %, number only.

| molecule | units_text | nuclear beta-catenin stimulation |
| --- | --- | --- |
| CC(=O)NC(Cc1ccccc1)C(=O)O (configuration not stated) | % | -0.2 |

Q. Report nuclear beta-catenin stimulation for CC(C)=CCC/C(C)=C/CO please.
A. 3

Q. Report nuclear beta-catenin stimulation for CC(=O)N(c1onc(C)c1C)S(=O)(=O)c1ccc(N)cc1 please.
A. 0.2

Q. Report nuclear beta-catenin stimulation for C=CCN1C[C@H](C(=O)N(CCCN(C)C)C(=O)NCC)C[C@@H]2c3cccc4[nH]cc(c34)C[C@H]21 please.
A. 0.7

FYI, the data here is from PubChem BioAssay.
